Ref: patent US7118895B2

test system: Crude diglycosidase; assay: Examination of pH in the conversion into isoflavone aglycons by diglycosidase using soybean materials; type: biochemical, Penicillium multicolor IAM7153; conditions: pH2.3; heat treatment of enzyme: no; reaction time 1 h
metric: Decomposition efficiency of daidzin family in soymilk

[[record]]
compound = "O=c1c(-c2ccc(O)cc2)coc2cc(O[C@@H]3O[C@H](CO)[C@@H](O)[C@H](O)[C@H]3O)ccc12 [daidzin]"
tested_system = "Crude diglycosidase"
measured_result = "not detected"

[[record]]
compound = "O=c1c(-c2ccc(O)cc2)coc2cc(O)ccc12 [daidzein]"
tested_system = "Crude diglycosidase"
measured_result = "45.3%"

[[record]]
compound = "CC(=O)OC[C@H]1O[C@@H](Oc2ccc3c(=O)c(-c4ccc(O)cc4)coc3c2)[C@H](O)[C@@H](O)[C@@H]1O [acetyldaidzin, 6″-O-acetyldaidzin]"
tested_system = "Crude diglycosidase"
measured_result = "not detected"

[[record]]
compound = "O=C(O)CC(=O)OC[C@H]1O[C@@H](Oc2ccc3c(=O)c(-c4ccc(O)cc4)coc3c2)[C@H](O)[C@@H](O)[C@@H]1O [malonyldaidzin, 6″-O-malonyldaidzin]"
tested_system = "Crude diglycosidase"
measured_result = "54.7%"

